# solubility listing for each entry below
assay: Solubility in phosphate-buffered saline (PBS) at pH 7.1; format: physicochemical
experimentalEndpoint: solubility (µM)

[[record]]
molecule = "O=C(NCCCCN(CCCCNC(=O)C1CSC(c2ccccc2O)=N1)Cc1ccccc1)C1CSC(c2ccccc2O)=N1 (centres undefined)"
unitdescriptor = "µM"
val = 15

[[record]]
molecule = "CC(=O)N(CCCCNC(=O)C1CSC(c2ccccc2O)=N1)CCCCNC(=O)C1CSC(c2ccccc2O)=N1 (centres undefined)"
unitdescriptor = "µM"
val = 10

[[record]]
molecule = "O=C(O)C1CSC(c2ccccc2O)=N1 (centres undefined)"
unitdescriptor = "µM"
val = 75

[[record]]
molecule = "COC(=O)C1CSC(c2ccccc2O)=N1 (centres undefined)"
unitdescriptor = "µM"
val = 50


###

test system: L1210; assay: Percent viability against L1210 leukemic cells at 50 uM; assay type: functional, Mus musculus
# Lookup of reported Viability keyed by entry
experimentalEndpoint: Viability (%)

[[record]]
compound = "O=C(O)C1CSC(c2ccccc2O)=N1 (centres undefined)"
val = 81

[[record]]
compound = "CC(=O)N(CCCCNC(=O)C1CSC(c2ccccc2O)=N1)CCCCNC(=O)C1CSC(c2ccccc2O)=N1 (centres undefined)"
val = 100

[[record]]
compound = "COC(=O)C1CSC(c2ccccc2O)=N1 (centres undefined)"
val = 36

[[record]]
compound = "O=C(NCCCCN(CCCCNC(=O)C1CSC(c2ccccc2O)=N1)Cc1ccccc1)C1CSC(c2ccccc2O)=N1 (centres undefined)"
val = 0

